Molecular target: JMJD2A (KDM4A) (Homo sapiens, UniProt O75164)
Sequence (O75164 1-1064): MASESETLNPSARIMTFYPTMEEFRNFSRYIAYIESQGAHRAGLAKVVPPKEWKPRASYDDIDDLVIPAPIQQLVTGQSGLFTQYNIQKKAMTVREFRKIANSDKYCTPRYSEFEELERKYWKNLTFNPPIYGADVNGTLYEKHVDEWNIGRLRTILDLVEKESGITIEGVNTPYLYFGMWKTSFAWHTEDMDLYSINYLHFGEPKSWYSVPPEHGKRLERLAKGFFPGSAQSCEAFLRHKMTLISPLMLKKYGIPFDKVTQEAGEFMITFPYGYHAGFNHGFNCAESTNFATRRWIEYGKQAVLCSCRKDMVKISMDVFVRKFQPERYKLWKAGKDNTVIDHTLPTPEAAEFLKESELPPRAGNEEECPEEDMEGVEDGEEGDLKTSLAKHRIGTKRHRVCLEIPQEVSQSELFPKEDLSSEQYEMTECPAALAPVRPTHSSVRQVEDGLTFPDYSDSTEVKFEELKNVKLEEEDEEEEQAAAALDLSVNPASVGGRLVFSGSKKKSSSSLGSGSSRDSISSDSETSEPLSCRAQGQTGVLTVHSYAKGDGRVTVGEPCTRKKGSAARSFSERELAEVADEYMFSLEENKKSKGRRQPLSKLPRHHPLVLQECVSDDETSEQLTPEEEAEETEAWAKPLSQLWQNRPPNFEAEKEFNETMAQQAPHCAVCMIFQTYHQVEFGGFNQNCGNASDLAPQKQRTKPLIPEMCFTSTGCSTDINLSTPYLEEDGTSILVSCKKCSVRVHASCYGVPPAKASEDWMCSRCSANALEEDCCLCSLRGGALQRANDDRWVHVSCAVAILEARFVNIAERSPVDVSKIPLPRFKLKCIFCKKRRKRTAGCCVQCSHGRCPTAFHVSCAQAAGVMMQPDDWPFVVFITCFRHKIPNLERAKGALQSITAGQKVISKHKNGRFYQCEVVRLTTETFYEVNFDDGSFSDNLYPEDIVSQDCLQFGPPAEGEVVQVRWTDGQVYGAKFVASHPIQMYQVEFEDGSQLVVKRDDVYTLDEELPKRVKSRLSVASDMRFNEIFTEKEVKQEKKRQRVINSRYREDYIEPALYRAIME
Assay: biochemical
Parameters: AlphaScreen histone demethylase activity assay
Details: read-out: KDM4A % Inhib. (18.75 uM)
Entries and their inhibition at 18.75 µM
Report the figure in % without appending any unit label.

Solved entries:
INSERT INTO assay_data (compound, scale_unit, result_value) VALUES
  ('CCOC(=O)C1(C#N)c2ccccc2N(C(C)=O)C1c1cncc(C=CCCCCCN2CCCC2)c1 (stereo not shown)', '%', -12.7),
  ('CC(=O)N1c2ccccc2[C@](C#N)(c2ccccc2)[C@H]1c1cncc(OCCCCCCCN2CCCC2)c1 (racemic)', '%', -5.4),
  ('CC(=O)N1c2ccccc2C(C#N)(c2ccccc2)C1c1cncc(C#CCCCCCN2CCCC2)c1 (stereo not shown)', '%', -1.3),
  ('CC(=O)N1c2ccccc2[C@](C#N)(c2ccccc2)[C@H]1c1cncc(OCCOCCOCCN2CCCC2)c1 (racemic)', '%', -5.9),
  ('CC(=O)N1c2ccccc2C(C#N)(c2ccccc2)C1c1cc(C#CCCCCCN2CCCC2)co1 (stereo not shown)', '%', 19.4);

Q: So what's the measured inhibition at 18.75 µM for this one? CC(=O)N1c2ccccc2[C@](C#N)(c2ccccc2)[C@H]1c1cncc(CCCCCCCN2CCCC2)c1 [(R,R)-6]
Ans: 7.8

Q: So what's the measured inhibition at 18.75 µM for this one? CC(=O)N1c2ccccc2[C@](C#N)(c2ccccc2)[C@H]1c1ccc(C#CCCCCCN2CCCC2)o1 (relative stereo)
Ans: 18.3
